Target: G protein-coupled receptor 119 (GPR-119) (Mesocricetus auratus, UniProt A0A1U8CD06)
Construct: hamster-derived β-cells containing G protein-coupled receptor 119 (GPR-119), HIT-T15 cells; host or cells: HIT-T15 (hamster pancreatic β-cells)
Sequence (A0A1U8CD06 1-334): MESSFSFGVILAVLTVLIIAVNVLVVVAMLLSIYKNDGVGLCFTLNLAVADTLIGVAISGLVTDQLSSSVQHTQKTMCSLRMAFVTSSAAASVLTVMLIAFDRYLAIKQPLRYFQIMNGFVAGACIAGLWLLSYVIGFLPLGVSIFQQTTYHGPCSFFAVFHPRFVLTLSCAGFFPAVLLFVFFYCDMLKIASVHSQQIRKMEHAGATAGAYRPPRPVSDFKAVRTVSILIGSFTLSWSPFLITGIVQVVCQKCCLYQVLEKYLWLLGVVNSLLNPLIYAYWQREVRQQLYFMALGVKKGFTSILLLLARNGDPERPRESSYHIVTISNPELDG
Experiment: Evaluation of cAMP activity in HIT-T15 cells (HTRF cAMP dynamic kit)
Format: cell-based, hamster
Conditions: cAMP activation, 1 h at 37° C., six concentrations, read-out: EC50
pEC50: −log10 of the molar value.
Kind request: treat 7 as inclusive, so pEC50 at 7 or higher is YES, anything lower is NO.

Worked set:
Compound	Class label
CC(C)c1noc(N2CCC(COc3ccc(C4=CCC(C(=O)N5CC[C@@H](O)C5)CC4)cc3)CC2)n1 (some centres unmarked)	YES
CC(C)c1noc(N2CCC(COc3ccc(C4=CCC(C(=O)N(C)CCCNC(=O)OC(C)(C)C)CC4)cc3)CC2)n1 (centres unmarked)	YES

Please turn your attention to the following entry.
IN: Determine whether this compound has pEC50 no lower than 7: CC(C)c1noc(N2CCC(COc3ccc(C4=CCC(C(=O)N[C@H](C)CO)CC4)nc3)CC2)n1 (some centres unmarked)
OUT: NO

###

target: G protein-coupled receptor 119 (GPR-119) (Mesocricetus auratus, UniProt A0A1U8CD06); construct: hamster-derived β-cells containing G protein-coupled receptor 119 (GPR-119), HIT-T15 cells; host or cells: HIT-T15 (hamster pancreatic β-cells); experiment: Evaluation of cAMP activity in HIT-T15 cells (HTRF cAMP dynamic kit); assay type: cell-based, hamster; conditions: cAMP activation, 1 h at 37° C., six concentrations, read-out: EC50
Readout label: pEC50
In simple prose, pEC50 is minus the logarithm base ten of a concentration in moles per litre.

IN: Bench note: what pEC50 did CC(C)(C)OC(=O)N1CCC(COc2ccc(C3=CCC(C(=O)NCC(F)F)CC3)c(F)c2)CC1 (stereo not drawn) show?
OUT: 7.12

IN: Consider next the compound CC(C)c1noc(N2CCC(COc3ccc(C4=CCC(C(=O)N5CC[C@@H](CO)C5)CC4)cc3)CC2)n1 (stereo partly drawn) in the same way.
OUT: 7.64

IN: Query CC(C)(C)OC(=O)N1CCC(COc2ccc(C3=CCC(C(=O)N4CCc5ccccc5C4)CC3)cc2)CC1 (stereo not drawn) next
OUT: 7.66

###

target: G protein-coupled receptor 119 (GPR-119) (Mesocricetus auratus); construct: hamster-derived β-cells containing G protein-coupled receptor 119 (GPR-119), HIT-T15 cells; host or cells: HIT-T15 (hamster pancreatic β-cells); assay: Evaluation of cAMP activity in HIT-T15 cells (HTRF cAMP dynamic kit); assay type: cell-based, hamster; conditions: cAMP activation, 1 h at 37° C., six concentrations, read-out: EC50
Readout label: pEC50
Quick note: pEC50 values are minus log10 of concentrations in mol/L.

IN: Request the reported pEC50 associated with CC(C)(C)OC(=O)N1CCC(COc2ccc(C3=CCC(C(=O)N4CC[C@@H](O)C4)CC3)cn2)CC1 (stereo partly drawn)
OUT: 7.07

IN: Also need CC(C)c1noc(N2CCC(COc3ccc(C4=CCC(C(=O)NCCF)CC4)cc3F)CC2)n1 (stereo not drawn) , thanks.
OUT: 7.17

IN: Note, next up: CC(C)c1noc(N2CCC(COc3ccc(C4=CCC(C(=O)N5CC[C@@H](F)C5)CC4)nc3)CC2)n1 (stereo partly drawn)
OUT: 6.96

Reference for the values: patent US9758527B2
